melting point values for the compounds below.

{"Compound": "O=C(C=Cc1cccnc1)NCCCCC1CCN(S(=O)(=O)c2ccc3ccccc3c2)CC1", "melting point": "85 to 87 °C"}
{"Compound": "O=C(C=Cc1cccnc1)NCCCCC1CCN(C(=O)Nc2cccc3ccccc23)CC1", "melting point": "198 to 200 °C"}
{"Compound": "O=C(C=CC=Cc1cccnc1)NCCCCC1CCN(C(c2ccccc2)c2ccccc2)CC1", "melting point": "164 to 166 °C"}
{"Compound": "O=C(C=Cc1cccnc1)NCCCCC1CCN(C2c3ccccc3CSc3ccccc32)CC1 (centres unmarked)", "melting point": "89 to 91 °C"}
{"Compound": "O=C(C=Cc1cccnc1)NCCCCC1CCN(C(=O)C(c2ccccc2)c2ccccc2)CC1", "melting point": "161 °C"}
